Catalogue of TGI readings, one per entry.
- System: U251 CNS
- experimental-details: NCI tumour cell line growth inhibition, 48 h
parameter: TGI

>  <compound>
Cn1c(=O)c2ccc(-c3ccc(Br)cc3)nc2n(C)c1=O

>  <target-under-test>
U251 CNS

>  <parameter>
TGI

>  <observed-value>
> 100 µM

$$$$
>  <compound>
Cc1ccc(C2N=C(N)NC3=C2CCOc2c3ccc3ccccc23)cc1 (stereo not drawn)

>  <target-under-test>
U251 CNS

>  <parameter>
TGI

>  <observed-value>
> 66.9 µM

$$$$
>  <compound>
COc1cccc(NC(=O)C(C)(C)C)c1SSc1c(NC(=O)C(C)(C)C)cccc1OC

>  <target-under-test>
U251 CNS

>  <parameter>
TGI

>  <observed-value>
35.1 µM

$$$$

* * *

- Test system: NCI-H522 lung
- experimental-details: NCI tumour cell line growth inhibition, 48 h
parameter: TGI

>  <molecule>
NNC1=N/C(=C\c2ccco2)C(=O)N1

>  <observed-value>
> 100 µM

$$$$
>  <molecule>
CCOc1ccc2c(C)cc(=O)oc2c1

>  <observed-value>
> 100 µM

$$$$
>  <molecule>
NC1CCC(Nc2nc(NCc3cc(Cl)ccc3O)c3ncn(C4CCCC4)c3n2)CC1 (stereo not drawn)

>  <observed-value>
0.335 µM

$$$$

* * *

- System: SF-539 CNS
- experimental-details: NCI tumour cell line growth inhibition, 48 h
parameter: TGI

>  <molecule>
CN(C)CCC(CCN(C)C)=NOC(=O)c1ccccc1

>  <observed-value>
> 100 µM

$$$$
>  <molecule>
O=[N+]([O-])c1ccc(Sc2nc(Cl)nc(NC3CCCC3)n2)cc1

>  <observed-value>
> 10 µM

$$$$
>  <molecule>
COC(=O)C(Cc1ccccc1)NP(=O)(O)OCC1OC(n2cc(I)c(=O)[nH]c2=O)CC1O (stereo not given)

>  <observed-value>
> 100 µM

$$$$
>  <molecule>
CCOC(=O)C1C(c2ccc(O)c(OC)c2)c2c([nH][nH]c2=O)CC1(C)O (stereo not given)

>  <observed-value>
> 100 µM

$$$$
>  <molecule>
CC1=C(C(=O)Nc2ccc3[nH]ncc3c2)C(c2ccc(Cl)c(Cl)c2)CC(=O)N1 (stereo not given)

>  <observed-value>
> 25 µM

$$$$

* * *

- Test system: TK-10 renal
- experimental-details: NCI tumour cell line growth inhibition, 48 h
parameter: TGI

>  <compound>
COC(=O)C1=Cc2cc(OC)c(OC)cc2[C@H](c2ccc(OC)c(OC)c2)C1C(=O)OC (stereo partly drawn)

>  <observed-value>
> 100 µM

$$$$
>  <compound>
O=C(Nc1nc(C23CC4CC(CC(C4)C2)C3)cs1)c1cc2cc(Cl)ccc2oc1=O

>  <observed-value>
> 100 µM

$$$$
>  <compound>
NC(=O)c1ncn(CCN2CCN(C(=O)NCCCCCCNC(=O)N3CCN(CCn4cnc(C(N)=O)c4N)CC3)CC2)c1N

>  <observed-value>
> 100 µM

$$$$

* * *

- System: NCI/ADR-RES ovarian
- experimental-details: NCI tumour cell line growth inhibition, 48 h
parameter: TGI

>  <compound>
c1cc(CSSCc2ccncc2)ccn1

>  <observed-value>
> 85.3 µM

$$$$
>  <compound>
CCC(C)[C@H](NC(=O)NC(=O)NC(=O)CI)C(=O)OC (stereo partly drawn)

>  <observed-value>
60 µM

$$$$
>  <compound>
c1cc2nnc1SCCCSc1ccc(nn1)SCCCSc1ccc(nn1)SCCCS2

>  <observed-value>
> 100 µM

$$$$
>  <compound>
Cc1ccc(/C=C/C(=N/N=C(N)N)c2ccccc2)cc1

>  <observed-value>
12 µM

$$$$
>  <compound>
COC(=O)/C=C(/C(=O)OC)c1cc2ccc3c([nH]c4ccccc43)c(C)c-2c1

>  <observed-value>
> 100 µM

$$$$
>  <compound>
COC1(OC)N=C(N)C2(C#N)C3(C(=O)N(C(C)C)N=C3C)C12C#N (stereo not drawn)

>  <observed-value>
> 100 µM

$$$$
>  <compound>
N#Cc1ccsc1NC(=O)COC(=O)c1cccc(S(=O)(=O)N2CCc3ccccc32)c1

>  <observed-value>
> 100 µM

$$$$
>  <compound>
COc1ccc(-c2nn(-c3cccc(NC(=O)Nc4ccccc4)c3)cc2-c2ccncc2)cc1Cl

>  <observed-value>
8.26 µM

$$$$
>  <compound>
NC(=O)C(=CNC(=S)Nc1ccc(Cl)c(Cl)c1)C(N)=O

>  <observed-value>
> 100 µM

$$$$
>  <compound>
NC1CCC(Nc2nc(NCc3cc(Cl)ccc3O)c3ncn(C4CCCC4)c3n2)CC1 (stereo not drawn)

>  <observed-value>
0.316 µM

$$$$
>  <compound>
NS(=O)(=O)c1ccc(NCc2cnc3ccccc3n2)cc1

>  <observed-value>
> 100 µM

$$$$
>  <compound>
CC1=C(C(=O)Nc2ccc3[nH]ncc3c2)C(c2ccc(Cl)c(Cl)c2)CC(=O)N1 (stereo not drawn)

>  <observed-value>
> 25 µM

$$$$
>  <compound>
Clc1ccc(CNc2nc(Cl)c3[nH]cnc3n2)cc1Cl

>  <observed-value>
69.6 µM

$$$$
